Reference source for all entries: patent US20210340181A1

Listing of recorded IC50 by entry.
Target: T1, αvβ6 integrin (purified), P06756
T1 chain 1: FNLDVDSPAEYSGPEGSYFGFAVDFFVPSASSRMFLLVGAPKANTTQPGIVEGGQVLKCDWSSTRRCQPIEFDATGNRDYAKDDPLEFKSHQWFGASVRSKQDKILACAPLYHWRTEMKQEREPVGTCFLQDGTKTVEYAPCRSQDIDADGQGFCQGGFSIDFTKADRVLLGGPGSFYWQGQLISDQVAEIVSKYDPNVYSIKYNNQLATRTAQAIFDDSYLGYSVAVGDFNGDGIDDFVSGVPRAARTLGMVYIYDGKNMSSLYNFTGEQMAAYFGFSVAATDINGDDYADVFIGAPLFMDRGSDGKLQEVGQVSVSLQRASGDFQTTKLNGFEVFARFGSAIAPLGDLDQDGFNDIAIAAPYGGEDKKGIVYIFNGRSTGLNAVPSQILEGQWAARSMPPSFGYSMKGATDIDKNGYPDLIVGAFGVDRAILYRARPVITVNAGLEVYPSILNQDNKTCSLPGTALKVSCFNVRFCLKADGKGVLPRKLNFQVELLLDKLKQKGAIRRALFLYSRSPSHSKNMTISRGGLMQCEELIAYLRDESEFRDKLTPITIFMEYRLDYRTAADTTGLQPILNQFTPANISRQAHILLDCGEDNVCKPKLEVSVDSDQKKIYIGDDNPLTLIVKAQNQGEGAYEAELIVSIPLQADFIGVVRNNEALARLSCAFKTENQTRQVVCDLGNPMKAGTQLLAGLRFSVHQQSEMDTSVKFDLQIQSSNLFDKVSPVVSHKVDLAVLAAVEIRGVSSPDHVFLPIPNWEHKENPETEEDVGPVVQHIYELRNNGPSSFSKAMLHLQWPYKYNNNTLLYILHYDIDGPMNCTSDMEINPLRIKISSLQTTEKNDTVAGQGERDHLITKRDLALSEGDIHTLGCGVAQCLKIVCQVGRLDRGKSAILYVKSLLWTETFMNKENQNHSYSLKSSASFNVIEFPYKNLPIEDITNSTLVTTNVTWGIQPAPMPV
T1 chain 2: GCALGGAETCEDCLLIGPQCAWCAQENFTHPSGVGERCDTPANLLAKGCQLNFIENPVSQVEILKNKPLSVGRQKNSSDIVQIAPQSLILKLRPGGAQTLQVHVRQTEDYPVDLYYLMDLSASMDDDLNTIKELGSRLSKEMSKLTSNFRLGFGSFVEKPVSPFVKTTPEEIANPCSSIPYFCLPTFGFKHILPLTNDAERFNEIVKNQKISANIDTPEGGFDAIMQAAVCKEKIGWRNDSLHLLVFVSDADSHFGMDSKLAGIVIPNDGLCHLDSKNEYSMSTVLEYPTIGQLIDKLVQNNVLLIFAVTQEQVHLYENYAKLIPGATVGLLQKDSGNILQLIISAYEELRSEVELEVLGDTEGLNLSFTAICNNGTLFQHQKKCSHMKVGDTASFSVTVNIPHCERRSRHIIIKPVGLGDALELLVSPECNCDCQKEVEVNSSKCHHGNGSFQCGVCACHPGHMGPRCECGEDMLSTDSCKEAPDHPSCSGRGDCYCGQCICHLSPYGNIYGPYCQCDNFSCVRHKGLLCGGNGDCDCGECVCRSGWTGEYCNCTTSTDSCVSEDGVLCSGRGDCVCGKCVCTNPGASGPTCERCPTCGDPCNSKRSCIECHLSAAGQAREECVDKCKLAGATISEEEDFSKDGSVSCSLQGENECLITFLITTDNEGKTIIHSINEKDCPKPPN
Test: competitive ELISA vs BtLAP

{"binder": "RTDLDSLRT (modifications not checked) [RTD-9mer, FB-…]", "IC50 [nM]": 22}
{"binder": "VGDLTYLKK (modifications not checked) [P1, …(FB)]", "IC50 [nM]": 450}
{"binder": "GRGDLGRL (modifications not checked) [SFLAP3-8mer, FB-GRGDLGRL]", "IC50 [nM]": 89}
{"binder": "RGDLADLRK (modifications not checked) [P3, …(FB)]", "IC50 [nM]": 420}
{"binder": "RSDLTPLF (modifications not checked) [KL3, FB-RSDLTPLF]", "IC50 [nM]": 1700}
